# protocol_details: Ratio of association constant of thrombin and tissue-type plasminogen activator
// reported Ratio for each item listed
observation_type: Ratio

mol: N=C(N)NCCC[C@@H](C=O)NC(=O)CN(CCCc1ccccc1)C(=O)[C@H]1CCCCN1
result: 4000
--
mol: CC(C)N(CC(=O)N[C@H](C=O)CCCN=C(N)N)C(=O)[C@H]1CCCCN1
result: 10000
--
mol: N=C(N)NCCC[C@@H](C=O)NC(=O)CN(CCC1CCCCC1)C(=O)[C@H]1CCCCN1
result: 770

----------
# protocol_details: Ratio of association constant of thrombin and tissue-type plasminogen activator
Where a SMILES comes first, the peptide text is derived from it. [ ]: non-standard residue; d: D form. dPip = O=C(O)[C@H]1CCCCN1
// reported Ratio for each item listed
observation_type: Ratio

compound: CC(C)CN(CC(=O)N[C@H](C=O)CCCN=C(N)N)C(=O)[C@H]1CCCCN1
number: 24000
--
compound: N=C(N)NCCC[C@@H](C=O)NC(=O)[C@@H]1CCCN1C(=O)[C@H]1CCCCN1 (H-[dPip]-Pro-Arg-aldehyde)
number: 6700
--
compound: N=C(N)NCCC[C@@H](C=O)NC(=O)CN(C(=O)[C@H]1CCCCN1)c1ccccc1
number: 4000
--
compound: CN(CC(=O)N[C@H](C=O)CCCN=C(N)N)C(=O)[C@H]1CCCCN1
number: 5500
--
compound: CC(C)CCN(CC(=O)N[C@H](C=O)CCCN=C(N)N)C(=O)[C@H]1CCCCN1
number: 4000
--
compound: CCCN(CC(=O)N[C@H](C=O)CCCN=C(N)N)C(=O)[C@H]1CCCCN1
number: 8500
--
compound: CCN(CC(=O)N[C@H](C=O)CCCN=C(N)N)C(=O)[C@H]1CCCCN1
number: 6600
--
compound: N=C(N)NCCC[C@@H](C=O)NC(=O)CN(Cc1ccccc1)C(=O)[C@H]1CCCCN1
number: 1000
--
compound: N=C(N)NCCC[C@@H](C=O)NC(=O)CN(CCc1ccccc1)C(=O)[C@H]1CCCCN1
number: 14500
